System: MCP-I
EXPERIMENT: MCP-I cytokine elevation in serum
Format: in vivo
ASSAY CONDITIONS: cirRNA (SEQ ID NO: 1) LNPs, mice, 24 hours
MEASURED PARAMETER: MCP-I in Sera 24 hours After 0.5 MPK Injection (pg/mL)

(a) CCCCCCCCC(CCCCCCCC)OC(=O)CCCCCCCN(CCCCCCCCOC(=O)C(CCCCCC)CCCCCCCC)CCCOC(=O)NCCN1CCCC1 (stereo not drawn) [Lipid 350]
(b) CCCCCCCCC(CCCCCCCC)OC(=O)CCCCCCCN(CCCCCCCCOC(=O)C(CCCCCC)CCCCCCCC)CCOC(=O)NCCN1CCCC1 (stereo not drawn) [Lipid 148]
[ask] Between a and b , whose recorded MCP-I in Sera 24 hours After 0.5 MPK Injection is greater? Kindly give the label for the entry you pick.
[reply] a

====

EXPERIMENT: RNA encapsulation efficacy by Quant-IT Ribogreen kit
Format: physicochemical
ASSAY CONDITIONS: LNP with cirRNA (SEQ ID NO: 1)
MEASURED PARAMETER: Encapsulation Efficiency % (%)

* CCCCCCCCCC(=O)OCCCCCCCN(CCCCCCCCOC(=O)C(CCCCCC)CCCCCCCC)CCCOC(=O)NCCN1CCCC1 (stereo not shown) | 87
* CCCCCCCCCC(=O)OCCCCCCCN(CCCCCCCCOC(=O)C(CCCCCC)CCCCCCCC)CCOC(=O)NCCCN(CC)CC (stereo not shown) | 94
* CCCCC/C=C\C/C=C\CCCCCCCCN(CCCCCCCC(=O)OC(CCCCCCCC)CCCCCCCC)CCOC(=O)NCCN1CCN(C)CC1 | 100
* CCCCC/C=C\C/C=C\CCCCCCCCN(CCCCCCCC(=O)OC(CCCCCCCC)CCCCCCCC)CCOC(=O)NCCCN(CC)CC | 96
* CCCCC/C=C\CCOC(=O)CCCCCN(CCCCCCCCOC(=O)C(CCCCCC)CCCCCCCC)CCOC(=O)NCCN(C)C (stereo not shown) | 95
* CCCCCCCCCCCOC(=O)CCCCCN(CCCCCCCCOC(=O)C(CCCCCC)CCCCCCCC)CCOC(=O)NCc1ncc[nH]1 (stereo not shown) | 91
* CCCCC/C=C\C/C=C\CCCCCCCCN(CCCCCCCC(=O)OC(CCCCCCCC)CCCCCCCC)CCCOC(=O)NCCN1CCN(C)CC1 | 95

====

EXPERIMENT: RNA encapsulation efficacy by Quant-IT Ribogreen kit
Assay type: physicochemical
ASSAY CONDITIONS: LNP with cirRNA (SEQ ID NO: 1)
MEASURED PARAMETER: Encapsulation Efficiency % (%)

- CCCCCCCCC(CCCCCC)C(=O)OCCCCCCCCN(CCCCCCCCCCC(=O)OCCCCCC)CCOC(=O)NCCN(C)C (stereo not shown): 95
- CCCCCCCCC(CCCCCCCC)OC(=O)CCCCCCCN(CCCCCCCCOC(=O)C(CCCCCC)CCCCCCCC)CCCOC(=O)NCCN1CCCCCC1 (stereo not shown): 96
- CCCCCCCCCCC(CCCCCCCC)COC(=O)CCCCCN(CCCCCC(=O)OCC(CCCCCCCC)CCCCCCCCCC)CCOC(=O)NCCN1CCCC1 (stereo not shown): 97
- CCCCCCCCC(CCCCCCCC)OC(=O)CCCCCCCN(CCCCCCCCOC(=O)C(CCCCCC)CCCCCCCC)CCCOC(=O)NCCN1CCC1 (stereo not shown): 95
- CCCCCCCCCCCOC(=O)CCCCCN(CCCCCCCC(=O)OC(CCCCCCCC)CCCCCCCC)CCOC(=O)NCCCN(C)C: 76
- CCCCC/C=C\CCOC(=O)CCCCCN(CCCCCCCCOC(=O)C(CCCCCC)CCCCCCCC)CCOC(=O)NCc1ncc[nH]1 (stereo not shown): 88
- CCCCCCCCCC(=O)OCCCCCCCCN(CCCCCCCCOC(=O)CCCCCCCCC)CCOC(=O)NCCN1CCN(C)CC1: 94
- CCCCCCCC/C=C\CCCCCCCCN(CCCCCCCCOC(=O)C(CCCCCC)CCCCCCCC)CCOC(=O)NCCCn1ccnc1 (stereo not shown): 94
- CCCCCCCCCCC(CCCCCCCC)COC(=O)CCCCCN(CCCCCC(=O)OCC(CCCCCCCC)CCCCCCCCCC)CCOC(=O)NCCCN(CC)CC (stereo not shown): 83
- CCCCCCCCCCC(CCCCCCCC)COC(=O)CCCCCN(CCCCCC(=O)OCC(CCCCCCCC)CCCCCCCCCC)CCOC(=O)NCCCn1ccnc1 (stereo not shown): 82
- CCCCCCCCCCCOC(=O)CCCCCN(CCCCCC(=O)OCCCCCCCCCCC)CCOC(=O)NCc1ncc[nH]1: 76
- CCCCCCCCCCC(CCCCCCCC)COC(=O)CCCCCN(CCCCCC(=O)OCC(CCCCCCCC)CCCCCCCCCC)CCCOC(=O)NCCN1CCCCC1 (stereo not shown): 97
- CCCCC/C=C\C/C=C\CCCCCCCCN(CCCCCCCC(=O)OC(CCCCCCCC)CCCCCCCC)CCCOC(=O)NCCN1CCCCC1: 96
